The origin of these recorded values is the supplement of paper PMC11451515.

tested on: NOMO1; assay: cell viability relative to DMSO control; higher = less cytotoxic; conditions: RPMI 5 mM glucose + 10% FBS; 48 h; 0.00702 µM
ASSAY READOUT: cell viability (%)
The answer is to be given in %; state only the numeric part.

(Q) Consider the compound shown here: `CC(C)OC(=O)OCOP(=O)(CO[C@H](C)Cn1cnc2c(N)ncnc21)OCOC(=O)OC(C)C.O=C(O)C=CC(=O)O` What is its recorded cell viability?
(A) 125

(Q) Same thing, different compound: CNC1CCC(N(Cc2cccc(-c3ccncc3)c2)C(=O)c2sc3ccccc3c2Cl)CC1 (stereo not drawn)
(A) 85.5

(Q) Same thing, different compound: `CCc1cc(Nc2nccc(-c3c(-c4ccc(OC)c(C(=O)Nc5c(F)cccc5F)c4)nc4ccccn34)n2)c(OC)cc1N1CCC(N2CCN([S+](C)(=O)[O-])CC2)CC1`
(A) 92.7

(Q) Same thing, different compound: CCC1(C)CC(=O)NC1=O (stereo not drawn)
(A) 84.7

(Q) Same thing, different compound: `CCCCn1c(=O)n(Cc2ccccc2F)c(=O)c2nc(Cc3ccc(NC(C)=O)cc3)[nH]c21`
(A) 78.1

(Q) Same thing, different compound: CN1[C@@H]2CC(OC(=O)[C@@H](CO)c3ccccc3)C[C@H]1[C@H]1O[C@H]12 (stereo partly drawn)
(A) 101

(Q) Same thing, different compound: `CC(C)[C@@H](N(CCCN)C(=O)C1=CC=C(C)C=C1)C/2=N/C3=CC(=CC=C3C(=O)N2CC4=CC=CC=C4)Cl`
(A) 16.1

(Q) Same thing, different compound: COc1cccc2cc(-c3nc(C4CCC(C(=O)O)CC4)n4ncnc(N)c34)[nH]c12 (stereo not drawn)
(A) 107

====

test system: NOMO1; assay: AUC of viability dose-response curve (% viability x log10 dose units); higher = less sensitive; conditions: HPLM + 10% dialyzed FBS; 48 h
ASSAY READOUT: AUC of viability dose-response curve
Reply with just the number.

(Q) Consider the molecule shown here: COC1CCC(CC1)N(C(=O)C2CCC(C)CC2)C3=C(SC(=C3)\C4=C\CCCC4)C(O)=O (centres undefined) What is its recorded AUC of viability dose-response curve?
(A) 442

(Q) Same thing, different molecule: `C\C1=C\C(=O)OC2=C1C=CC(=C2)O`
(A) 456

(Q) Same thing, different molecule: `CCCc1nc(C(C)(C)O)c(C(=O)O)n1Cc1ccc(-c2ccccc2-c2nn[nH]n2)cc1`
(A) 439

(Q) Same thing, different molecule: `CCCCCOC(=O)NC\1=N\C(=O)N(\C=C1F)[C@@H]2O[C@H](C)[C@@H](O)[C@H]2O`
(A) 413

(Q) Same thing, different molecule: COc1cc2nc(N(C)CCCNC(=O)C3CCCO3)nc(N)c2cc1OC (centres undefined)
(A) 336

(Q) Same thing, different molecule: `COc1ccc(-c2cc3nccn3c(Nc3ncccc3C(N)=O)n2)cc1OC`
(A) 444

(Q) Same thing, different molecule: `COc1cc2c(cc1-c1c(C)noc1C)ncc1[nH]c(=O)n([C@H](C)c3ccccn3)c12`
(A) 373

(Q) Same thing, different molecule: `Cn1cc(/C=C/C(=O)c2cccc(F)c2)cc1/C=C/C(=O)NO`
(A) 468

(Q) Same thing, different molecule: `CC(C)(C)C(=O)Oc1ccc2c(c1)nc(NC(=O)c1cccc([N+](=O)[O-])c1)n2CCCO`
(A) 461

====

system: P12-Ichikawa; experiment: cell viability relative to DMSO control; higher = less cytotoxic; details: HPLM + 10% dialyzed FBS; 48 h; 0.00234 µM
For each entry below, report its cell viability value.
The answer is to be given in %; state only the numeric part.

(Q) Consider the molecule shown here: `CN(c1ncccc1CNc1nc(Nc2ccc3c(c2)CC(=O)N3)ncc1C(F)(F)F)[S+](C)(=O)[O-]` What is its recorded cell viability?
(A) 117

(Q) Same thing, different molecule: `COC(=O)Nc1nc2cc(C(=O)c3cccs3)ccc2[nH]1`
(A) 107

(Q) Same thing, different molecule: COc1cc2c(cc1OC)C1CC(=O)C(CC(C)C)CN1CC2 (configuration not stated)
(A) 122

(Q) Same thing, different molecule: `OC1=CC=C(C=C1)\C2=C\OC3=C(C=CC(=C3)O)C2=O`
(A) 107

(Q) Same thing, different molecule: `NC(=O)c1cnc(N[C@@H]2CCCC[C@@H]2N)nc1Nc1cccc(-n2nccn2)c1`
(A) 117

(Q) Same thing, different molecule: `CCCCn1c(=O)n(Cc2ccccc2F)c(=O)c2nc(Cc3ccc(NC(C)=O)cc3)[nH]c21`
(A) 95.6

(Q) Same thing, different molecule: `C[C@](O)(COc1ccc(C#N)cc1)C(=O)Nc1ccc(C#N)c(C(F)(F)F)c1`
(A) 81.8

(Q) Same thing, different molecule: `CC(=O)O.Cc1c(-c2ccc(O)cc2)n(Cc2ccc(OCCN3CCCCCC3)cc2)c2ccc(O)cc12`
(A) 101

(Q) Same thing, different molecule: `C[C@]12CC[C@@H]3c4ccc(OC(=O)N(CCCl)CCCl)cc4CC[C@H]3[C@@H]1CC[C@@H]2OP(=O)([O-])[O-].[Na+].[Na+]`
(A) 115

(Q) Same thing, different molecule: `Cn1c(=O)c2c(ncn2C)n(C)c1=O.O=C(O)CC(O)(CC(=O)O)C(=O)O`
(A) 106

(Q) Same thing, different molecule: `CC[C@H](CC[C@@H](C)[C@H]1CC[C@H]2[C@@H]3C\C=C/4C[C@@H](O)CC[C@]4(C)[C@H]3CC[C@]12C)C(C)C`
(A) 111

(Q) Same thing, different molecule: `CC(=O)N(C)c1cccc(-c2ccnc3c(C(=O)c4cccs4)cnn23)c1`
(A) 115

(Q) Same thing, different molecule: `CC(C)c1cnn2c(NCc3ccccc3)cc(N[C@@H](CO)[C@H](O)CO)nc12`
(A) 128

(Q) Same thing, different molecule: `C[C@H](O)[C@H]1[C@@H]2[C@H](C)C(=C(\N2C1=O)C(O)=O)/S[C@@H]3CN[C@H](CN[S+](N)([O-])=O)C3`
(A) 125

(Q) Same thing, different molecule: `Cc1cn2c(-c3cn[nH]c3)cnc2c(Nc2ccc(C(=O)N3CCNCC3)cc2F)n1`
(A) 104

(Q) Same thing, different molecule: `Oc1ccc2c3c1O[C@H]1c4[nH]c5c(c4C[C@@]4(O)[C@@H](C2)N(CC2CC2)CC[C@]314)C[C@@]1(O)[C@H]2Cc3ccc(O)c4c3[C@@]1(CCN2CC1CC1)[C@H]5O4`
(A) 111

(Q) Same thing, different molecule: `CC/1=C/C(=O)N(O)/C(=C1)C2CCCCC2`
(A) 118

====

test system: NOMO1; assay: cell viability relative to DMSO control; higher = less cytotoxic; conditions: RPMI 5 mM glucose + 10% dialyzed FBS; 48 h; 0.00234 µM
For each entry below, report its cell viability value.
The answer is to be given in %; state only the numeric part.

(Q) Consider the molecule shown here: `c1cncc(CN2CCC(n3ncc4c(N5CCOCC5)nc(-c5ccc6[nH]ccc6c5)nc43)CC2)c1` What is its recorded cell viability?
(A) 83.9

(Q) Same thing, different molecule: `COc1nccc(-c2c(-c3ccc(F)cc3)ncn2C2CCNCC2)n1`
(A) 119

(Q) Same thing, different molecule: `C[C@](O)(COc1ccc(C#N)cc1)C(=O)Nc1ccc(C#N)c(C(F)(F)F)c1`
(A) 88.7

(Q) Same thing, different molecule: `CC1=C(/C=C/C(C)=C/C=C/C(C)=C/C=C/C=C(C)/C=C/C=C(C)/C=C/C2=C(C)CCCC2(C)C)C(C)(C)CCC1`
(A) 113

(Q) Same thing, different molecule: `[NH2][Pt]1([NH2])[O]CC(=O)[O]1`
(A) 86.9

(Q) Same thing, different molecule: `Cc1c(CN2CCN(C(=O)[C@H](C)O)CC2)sc2c(N3CCOCC3)nc(-c3cnc(N)nc3)nc12`
(A) 94

(Q) Same thing, different molecule: `OC1=C(O)C2=C(\C=C/C(=O)O2)C=C1`
(A) 102

(Q) Same thing, different molecule: `C/C=C1\NC(=O)[C@H]2CSSCC/C=C\[C@H](CC(=O)N[C@H](C(C)C)C(=O)N2)OC(=O)[C@H](C(C)C)NC1=O`
(A) 90.3

(Q) Same thing, different molecule: CC(C)C(C)/C=C/C(C)C1CCC2C3=CC=C4CC(O)CCC4(C)C3CCC21C (centres undefined)
(A) 88.7

====

For each entry below, report its AUC of viability dose-response curve value.
system: NOMO1; test: AUC of viability dose-response curve (% viability x log10 dose units); higher = less sensitive; conditions: RPMI 5 mM glucose + 10% FBS; 48 h
Reply with just the number.

(Q) Consider the compound shown here: `CC(=O)O[C@H]1C[C@@H]2CC[C@@H]3[C@H](CC[C@@]4(C)[C@H]3C[C@H]([N+]3(C)CCCCC3)[C@@H]4OC(C)=O)[C@@]2(C)C[C@@H]1[N+]1(C)CCCCC1` What is its recorded AUC of viability dose-response curve?
(A) 466

(Q) Same thing, different compound: `CCc1cc(Nc2nccc(-c3c(-c4ccc(OC)c(C(=O)Nc5c(F)cccc5F)c4)nc4ccccn34)n2)c(OC)cc1N1CCC(N2CCN([S+](C)(=O)[O-])CC2)CC1`
(A) 464

(Q) Same thing, different compound: `CC1(C)Cc2c(-c3ccccc3)c(-c3ccc(Cl)cc3)c(CC(=O)O)n2C1`
(A) 454
